test system: UO-31; test: Cytotoxicity against human UO-31 cells after 48 hrs by SRB assay; assay type: functional; conditions: UO-31, 48 h
recorded endpoint: GI50 (µM)
Kindly provide the numeric value in µM only, without the unit symbol.

# molecule, readout unit, GI50
records = [
    ("COC(=O)[C@H]1O[C@@H](O[C@H]2CC[C@]3(C)[C@H]4CC=C5[C@@H]6CC(C)(C)CC[C@]6(C(=O)O)CC[C@@]5(C)[C@]4(C)CC[C@H]3C2(C)C)[C@H](O)[C@@H](O[C@@H]2O[C@H](CO)[C@H](O)[C@H](O)[C@H]2O)[C@@H]1O", "µM", 33.3),
    ("CCCCOC(=O)[C@H]1O[C@@H](O[C@H]2CC[C@]3(C)[C@H]4CC=C5[C@@H]6CC(C)(C)CC[C@]6(C(=O)O)CC[C@@]5(C)[C@]4(C)CC[C@H]3C2(C)C)[C@H](O[C@@H]2O[C@H](CO)[C@@H](O)[C@H](O)[C@H]2O)[C@@H](O[C@@H]2O[C@H](CO)[C@H](O)[C@H](O)[C@H]2O)[C@@H]1O", "µM", 49.2),
    ("CC1(C)CC[C@]2(C(=O)O)CC[C@]3(C)C(=CC[C@@H]4[C@@]5(C)CC[C@H](O[C@@H]6O[C@H](C(=O)O)[C@@H](O)[C@H](O[C@@H]7O[C@H](CO)[C@H](O)[C@H](O)[C@H]7O)[C@H]6O[C@@H]6O[C@H](CO)[C@@H](O)[C@H](O)[C@H]6O)C(C)(C)[C@@H]5CC[C@]43C)[C@@H]2C1 [CALENDULAGYCOSIDE B]", "µM", 63.5),
]

Incoming: Entry under review: "CCCCOC(=O)[C@H]1O[C@@H](O[C@H]2CC[C@]3(C)[C@H]4CC=C5[C@@H]6CC(C)(C)CC[C@]6(C(=O)O[C@@H]6O[C@H](CO)[C@@H](O)[C@H](O)[C@H]6O)CC[C@@]5(C)[C@]4(C)CC[C@H]3C2(C)C)[C@H](O)[C@@H](O)[C@@H]1O" . Reported GI50?
Outgoing: 12.7

====

# GI50 listing for each entry below
test system: HCT-15; assay: Cytotoxicity against human HCT-15 cells after 48 hrs by SRB assay; format: functional; conditions: HCT-15, 48 h
Form entry: value (µM) — number only.

Before answering, review these 3 worked examples.
# compound, recorded endpoint, reported value
records = [
    ("COC(=O)[C@H]1O[C@@H](O[C@H]2CC[C@]3(C)[C@H]4CC=C5[C@@H]6CC(C)(C)CC[C@]6(C(=O)O)CC[C@@]5(C)[C@]4(C)CC[C@H]3C2(C)C)[C@H](O)[C@@H](O[C@@H]2O[C@H](CO)[C@H](O)[C@H](O)[C@H]2O)[C@@H]1O", "GI50", 6.57),
    ("CC1(C)CC[C@]2(C(=O)O)CC[C@]3(C)C(=CC[C@@H]4[C@@]5(C)CC[C@H](O[C@@H]6O[C@H](C(=O)O)[C@@H](O)[C@H](O[C@@H]7O[C@H](CO)[C@H](O)[C@H](O)[C@H]7O)[C@H]6O[C@@H]6O[C@H](CO)[C@@H](O)[C@H](O)[C@H]6O)C(C)(C)[C@@H]5CC[C@]43C)[C@@H]2C1 [CALENDULAGYCOSIDE B]", "GI50", 94.6),
    ("CCCCOC(=O)[C@H]1O[C@@H](O[C@H]2CC[C@]3(C)[C@H]4CC=C5[C@@H]6CC(C)(C)CC[C@]6(C(=O)O[C@@H]6O[C@H](CO)[C@@H](O)[C@H](O)[C@H]6O)CC[C@@]5(C)[C@]4(C)CC[C@H]3C2(C)C)[C@H](O)[C@@H](O)[C@@H]1O", "GI50", 6.73),
]

# next compound below
Incoming: Given the entry "CCCCOC(=O)[C@H]1O[C@@H](O[C@H]2CC[C@]3(C)[C@H]4CC=C5[C@@H]6CC(C)(C)CC[C@]6(C(=O)O)CC[C@@]5(C)[C@]4(C)CC[C@H]3C2(C)C)[C@H](O[C@@H]2O[C@H](CO)[C@@H](O)[C@H](O)[C@H]2O)[C@@H](O[C@@H]2O[C@H](CO)[C@H](O)[C@H](O)[C@H]2O)[C@@H]1O" , report its measured GI50.
Outgoing: 20.9

Each recorded value in this set is attributed to ChEMBL document CHEMBL1158122.
